assay: NCI Yeast Anticancer Drug Screen. Data for the mec2-1 strain (AID 157); conditions: S. cerevisiae mec2-1 strain, at 50.0 µM
Compounds without any hit were thinned out: in the full panel of roughly 79,000, 15% have a hit. The source made the active and inactive calls. No stated cut-off is given here; in the data, active means growth inhibition above about 70%; inactive means the rest.
Possible outcomes: true (1) = active, false (0) = inactive

compound | assignedClass
Cc1cccc(Cl)c1NC(=O)/C=C/c1ccccc1 | false (0)
N#CSc1ccc2nc(NCO)sc2c1 | true (1)
Cc1ccccc1C[n+]1ccccc1Br | false (0)
FC(F)(F)c1[nH]nc(-c2cccs2)c1N=NN1CCOCC1 | true (1)
O=[N+]([O-])c1ccc(NC(=S)N/N=C(\c2ccccc2)c2ccccn2)cc1 | false (0)
COc1ccc(OC)c2c1C=C[C@H](C1(C)SCCS1)C2C(C)=O (stereo partly drawn) | true (1)
CCOC(=O)C(F)C(Br)C(=O)OCC (stereo not drawn) | true (1)
O=C1c2ccccc2C(=O)c2c(Nc3cc4c5c(ccc6c7ccc8c9c(cc(Nc%10cccc%11c%10C(=O)c%10ccccc%10C%11=O)c(c3c56)c97)-c3ccccc3C8=O)C(=O)c3ccccc3-4)cccc21 | false (0)
CCCCN(CCO)CC(O)Cn1cnc2c(N)ncnc21 (stereo not drawn) (tested in a mixture with another compound) | false (0)
FC(F)(F)c1ccccc1NC(=S)SCc1ccc2c(c1)OCO2 | true (1)
CCc1cccc(CC)c1NC(=O)C1=C(C)NC(C)=C(C(=O)Nc2c(CC)cccc2CC)C1c1ccc2c(c1)OCO2 | true (1)
CC1C(O)Oc2cc3c(cc2C1c1ccccc1O)OCO3 (stereo not drawn) | false (0)
Cc1cc(O)ccc1C1(c2ccc(F)cc2)OC(=O)c2ccccc21 (stereo not drawn) | true (1)
CC(=O)OC1CCC2(C)C(=CCC3C2CCC2(C)C(C(C)N)CCC32)C1 (stereo not drawn) | true (1)
CC(=O)Nc1ccc(C#N)c2ccccc12 | false (0)
COc1ccc(C(=O)Nc2ccc(Cl)cc2)cc1 | false (0)
CC(C)C1=CC(=O)C2=C(CCC3C(C)(C(=O)O)CCC[C@]23C)C1=O (stereo partly drawn) | true (1)
CCCCC(O)(c1ccc2nc(NC(=O)OC)[nH]c2c1)c1cccs1 (stereo not drawn) | true (1)
Cc1ccc(S(=O)(=O)Nc2ccc(C)cc2C)cc1 | false (0)
CCOC(=O)C1=C(N)OC(c2ccccc2)=C(C#N)C1c1ccc(C)cc1 (stereo not drawn) | true (1)
CC(O)CC(O)CC1CCCO1 (stereo not drawn) | false (0)
CCCCCCCCCCC(=O)CC(=O)c1c(O)cccc1O | false (0)
Cc1ccc(S(=O)(=O)CC2COC(CS(=O)(=O)c3ccc(C)cc3)CO2)cc1 (stereo not drawn) | false (0)

* * *

assay: NCI Yeast Anticancer Drug Screen. Data for the rad50 strain (AID 155);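 further: 0% = growth of vehicle-only cultures of the same strain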; conditions: S. cerevisiae rad50 strain growth inhibition; at 5.0 µM (retest, dose inferred, filed as 0.5); active compounds read high
The panel holds about 79,000 compounds, 15% with a hit somewhere; the sample as a whole holds those more often. Active and inactive are the calls of the source. Cut-off read from the data, not from the text of the source: active = growth inhibition above about 70%; inactive = the rest.
Here the recorded growth inhibition is given for each entry.

molecule | growth inhibition
COc1ccc(Cc2nc3ccccc3s2)cc1OC | 42% (inactive)
Nc1ncnc2nc(-c3ccc(C[P+](c4ccccc4)(c4ccccc4)c4ccccc4)cc3)[nH]c12 | -6% (inactive)
CC1=C(\C=C/C(C)=N/N=C(C)\C=C\C2=C(C)CCCC2(C)C)C(C)(C)CCC1 | 3% (inactive)
CCC[CH2][Sn]([CH2]CCC)([O]C(=O)c1cc(OC)c(OC)cc1OC)[O]C(=O)c1cc(OC)c(OC)cc1OC | 88% (active)
Cc1cc(=O)oc2c3c(ccc12)OC(c1ccc(Br)cc1)CC3=O (stereo unspecified) | 28% (inactive)
C=C1C(O)C2(O)OCC34C(CC5C(C)=CC(=O)C(O)C5(C)C23)OC(=O)C(OC(=O)C/C=C/CCCCCCCC)C14 (stereo unspecified) | 85% (active)
c1ccc(-c2cc(CN3CCOCC3)c(-c3ccccc3)o2)cc1 | -1% (inactive)
CC(/C=C/c1ccc(Cl)cc1)=N\NC(N)=S | 11% (inactive)
CN(C)c1ccc(/C=C(/NC(=O)c2ccccc2)c2nc3ccc(Cl)cc3[nH]2)cc1 | 16% (inactive)
CC1CC2(C)ON=C(c3ccccc3)N2c2ccccc2S1 (stereo unspecified) | -25% (inactive)
CCc1cc2c(cc1O)CC[C@@H]1[C@@H]2CC[C@]2(C)[C@@H](O)CC[C@@H]12 | 31% (inactive)
CC(=O)Nc1c(Cl)ccc2c1Cc1cc([N+](=O)[O-])ccc1-2 | 19% (inactive)
O=[N+]([O-])c1ccccc1NC1CCN(CCCC2(c3ccc(F)cc3)OCCO2)CC1 | 11% (inactive)
C=CC(=O)Nc1ccccc1CC(c1c[nH]c2ccccc12)c1c[nH]c2ccccc12 | 34% (inactive)
Cc1ccc(O)c(C(c2cc(C)ccc2O)c2cc([N+](=O)[O-])ccc2O)c1 | 23% (inactive)
CCc1cccc(CC)c1Nc1nc2c(s1)C(=O)c1ccccc1C2=O | 100% (active)
Cc1ccc(/[N+]([O-])=C/c2ccccc2)cc1 | -2% (inactive)
COc1ccc(OC)c2c(=S)c3ccccc3[nH]c12 | -1% (inactive)
CC1CCC(NCCOC(=O)c2ccc([N+](=O)[O-])cc2)CC1 (stereo unspecified) | 2% (inactive)
CC(=O)OCc1cc2ccccc2nc1C(Br)(Br)Br | -11% (inactive)
CN[C@@H](Cc1cccc2ccccc12)C(=O)N[C@@H](CC(C)C)B(O)O | 34% (inactive)
